biological target: KPC-2 (Klebsiella pneumoniae, UniProt Q9F663)
pIC50: −log10 of the molar value.
Result Type: pIC50

1) O=C(O)C[C@@H]1CC[C@H](NC(=O)Cc2cccs2)B(O)O1 [Vaborbactam] | 6.89

----------
Recorded kcat for the following compounds
molecular target: KPC-44 (Klebsiella pneumoniae, UniProt Q9F663, DUP260-274); format: biochemical; conditions: substrate hydrolysis by KPC-44; 30 °C, 50 mM sodium phosphate pH 7
Result Type: kcat (s⁻¹)

1. CC1(C)S[C@@H]2[C@H](NC(=O)[C@H](N)c3ccccc3)C(=O)N2[C@H]1C(=O)O | 126
2. C[C@@H](O)[C@H]1C(=O)N2C(C(=O)O)=C(S[C@@H]3CN[C@H](C(=O)N(C)C)C3)[C@H](C)[C@H]12 | 0.46
3. C[C@@H](O)[C@H]1C(=O)N2C(C(=O)O)=C(SCCN=CN)C[C@H]12 | 6.4
4. O=C(Cc1cccs1)N[C@@H]1C(=O)N2C(C(=O)O)=C(/C=C/c3ccc([N+](=O)[O-])cc3[N+](=O)[O-])CS[C@H]12 | 20

----------
target: KPC-44 (Klebsiella pneumoniae, UniProt Q9F663, DUP260-274); assay type: biochemical; details: substrate hydrolysis by KPC-44; 30 °C, pH 7
Result Type: Km (µM)

1) CC1(C)S[C@@H]2[C@H](NC(=O)[C@H](N)c3ccccc3)C(=O)N2[C@H]1C(=O)O | 232
2) O=C(Cc1cccs1)N[C@@H]1C(=O)N2C(C(=O)O)=C(/C=C/c3ccc([N+](=O)[O-])cc3[N+](=O)[O-])CS[C@H]12 | 16
3) C[C@@H](O)[C@H]1C(=O)N2C(C(=O)O)=C(SCCN=CN)C[C@H]12 | 57
4) C[C@@H](O)[C@H]1C(=O)N2C(C(=O)O)=C(S[C@@H]3CN[C@H](C(=O)N(C)C)C3)[C@H](C)[C@H]12 | 7.3

----------
test system: Escherichia coli Top10 vector control (no β-lactamase); assay: MIC by broth dilution, E. coli vector control; format: cell-based
Entries and their MIC
Result Type: MIC (µg/mL)

1. C[C@@H](O)[C@H]1C(=O)N2C(C(=O)O)=C(SCCN=CN)C[C@H]12 | 0.25
2. CC1(C)S[C@@H]2[C@H](NC(=O)[C@H](N)c3ccccc3)C(=O)N2[C@H]1C(=O)O | 4
3. C[C@@H](O)[C@H]1C(=O)N2C(C(=O)O)=C(S[C@@H]3CN[C@H](C(=O)N(C)C)C3)[C@H](C)[C@H]12 | 0.25
4. CC(C)(O/N=C(\C(=O)N[C@@H]1C(=O)N2C(C(=O)[O-])=C(C[n+]3ccccc3)CS[C@H]12)c1csc(N)n1)C(=O)O | 0.5

Each recorded value in this set is attributed to paper PMC10716778.
